Biological target: T1, full-length untagged human GPNMB expressed on cells (human, UniProt Q14956 23-572)
T1 sequence: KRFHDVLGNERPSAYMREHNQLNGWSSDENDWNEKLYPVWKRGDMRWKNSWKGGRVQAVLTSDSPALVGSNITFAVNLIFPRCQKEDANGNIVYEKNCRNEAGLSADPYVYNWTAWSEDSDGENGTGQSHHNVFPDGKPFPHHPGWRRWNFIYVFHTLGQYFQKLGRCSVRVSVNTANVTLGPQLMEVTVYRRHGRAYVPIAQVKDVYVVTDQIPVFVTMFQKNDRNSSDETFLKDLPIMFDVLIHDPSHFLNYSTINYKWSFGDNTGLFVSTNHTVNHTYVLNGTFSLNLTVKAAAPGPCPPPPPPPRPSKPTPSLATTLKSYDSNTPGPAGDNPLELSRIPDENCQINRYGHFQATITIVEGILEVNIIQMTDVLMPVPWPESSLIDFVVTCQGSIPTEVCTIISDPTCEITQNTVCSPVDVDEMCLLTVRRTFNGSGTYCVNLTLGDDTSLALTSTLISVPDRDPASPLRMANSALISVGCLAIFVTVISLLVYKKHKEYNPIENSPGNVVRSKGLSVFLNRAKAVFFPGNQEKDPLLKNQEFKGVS
Test: cell-based or functional assay
This section presents binders with their documented Fold Increase GCase (max response at 1 µg/ml) values.
Please respond with the number in fold and leave the unit unwritten.

# annotated cases, reported Fold Increase GCase (max response at 1 µg/ml) shown
• anti-GPNMB antibody GPN-87 (antibody, V domains shown) VH: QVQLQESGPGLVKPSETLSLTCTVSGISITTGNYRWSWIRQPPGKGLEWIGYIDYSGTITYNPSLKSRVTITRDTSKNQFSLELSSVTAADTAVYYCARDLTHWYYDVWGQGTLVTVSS VL: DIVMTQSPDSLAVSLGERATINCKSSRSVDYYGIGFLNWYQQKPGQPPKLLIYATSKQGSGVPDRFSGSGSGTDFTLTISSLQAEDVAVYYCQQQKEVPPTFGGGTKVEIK = 1.36
• anti-GPNMB antibody GPN-90 (antibody, V domains shown) VH: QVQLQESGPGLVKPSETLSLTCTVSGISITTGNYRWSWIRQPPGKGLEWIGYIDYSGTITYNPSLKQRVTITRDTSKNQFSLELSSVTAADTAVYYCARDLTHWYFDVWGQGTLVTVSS VL: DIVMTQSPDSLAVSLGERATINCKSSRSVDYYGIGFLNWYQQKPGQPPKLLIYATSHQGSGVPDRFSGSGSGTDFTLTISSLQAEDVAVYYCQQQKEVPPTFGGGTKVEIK = 1.37

// query Determine its reported Fold Increase GCase (max response at 1 µg/ml): anti-GPNMB antibody GPN-83 (antibody, V domains shown) VH: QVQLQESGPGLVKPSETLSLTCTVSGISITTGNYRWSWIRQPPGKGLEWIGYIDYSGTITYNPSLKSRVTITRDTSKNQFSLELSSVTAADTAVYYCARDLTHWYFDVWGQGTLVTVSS VL: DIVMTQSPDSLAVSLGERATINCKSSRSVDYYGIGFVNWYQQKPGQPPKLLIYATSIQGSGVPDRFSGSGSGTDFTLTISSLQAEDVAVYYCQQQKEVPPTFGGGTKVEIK
// result 1.32

Source listed as patent US20250270343A1.
